Assay: Half life in rat plasma
Format: ADME, organism-based
recorded-endpoint: half-life

Consider the worked cases shown below.
>>> df
                   smiles  recorded_endpoint  value
0     NCC1(CC(=O)O)CCCCC1          half-life  1.5 h
1  CC(C)C[C@H](CN)CC(=O)O          half-life  2.7 h

# ---- query molecule ----
The value of half-life measured for the molecule "NCC1(Cc2noc(=O)[nH]2)CCCCC1" turned out to be 1.6 h

---

Assay: Bioavailability in rat
Type: ADME, organism-based
Conditions: in vivo
recorded-endpoint: bioavailability (%)
Express your answer in %, writing the number without its unit.

>>> print(df.to_string())
                   smiles  recorded_endpoint  value
0  CC(C)C[C@H](CN)CC(=O)O    bioavailability     83

Measured bioavailability, "NCC1(Cc2noc(=O)[nH]2)CCCCC1" : 97

---

Experiment: Plasma concentration in Sprague-Dawley rat at 30 mg/kg, po after 2 hrs
Type: ADME, organism-based
Set-up: dose 30 mg/kg, route oral
recorded-endpoint: concentration at 2 h (ng/mL)
Field: numeric (ng/mL). Do not append units.

>>> df
                   smiles  value
0  CC(C)C[C@H](CN)CC(=O)O  25600

--- query ---
Lookup result for "NCC1(Cc2noc(=O)[nH]2)CCCCC1" ; measured concentration at 2 h: 15000

---

Test: AUC in rat
Type: ADME, organism-based
Details: plasma
Reported AUC is given for each of the following compounds.
# output: bare number, implied unit ng·h/mL

                   smiles  recorded_endpoint  unit_tag  value
0  CC(C)C[C@H](CN)CC(=O)O                AUC   ng·h/mL  14800

Field: next compound
Recorded AUC (compound "NCC1(Cc2noc(=O)[nH]2)CCCCC1" ): 2200

---

Experiment: Displacement of [3H]gabapentin from alpha2-delta subunit of voltage gated calcium channel in pig brain membrane
Type: cell membranes, Sus scrofa
Measured pIC50, listed per entry for reference.
Quick note: pIC50 means taking -log10 of the concentration in moles per liter.

Guide cases for pIC50, answers given:
>>> print(df.to_string())
                                     smiles  recorded_endpoint  value
0  C[C@@H]1C[C@H](C)C[C@@](CN)(Cc2noc(=O)[nH]2)C1              pIC50   7.15
1                   NCC1(Cc2nnn[nH]2)CCCCC1              pIC50   7.00
2                       NCC1(CC(=O)O)CCCCC1              pIC50   7.15

Now look at this entry.
Lab book: pIC50 of "C[C@@H]1CCC[C@@](CN)(Cc2noc(=O)[nH]2)C1" noted as 7.08

---

Test: Unbound fraction in rat
Assay type: ADME, organism-based
Settings: in vivo
recorded-endpoint: fraction unbound

Reported fraction unbound of "NCC1(Cc2noc(=O)[nH]2)CCCCC1" : > 0.9

---

Experiment: Drug level in Sprague-Dawley rat brain at 30 mg/kg, po after 2 hrs
recorded-endpoint: concentration at 2 h
Reply with the number and its unit after it.

Input "CC(C)C[C@H](CN)CC(=O)O" . Output concentration at 2 h: 7360 ng/mL

---

Assay: Volume of distribution at steady state in rat
Type: ADME, organism-based
Settings: in vivo, read-out: Vdss
recorded-endpoint: Vd
// unit must come after the numeric part

In [3]: df
Out[3]:
                   smiles  recorded_endpoint      value
0  CC(C)C[C@H](CN)CC(=O)O                 Vd  0.79 L/kg

Vd for "NCC1(Cc2noc(=O)[nH]2)CCCCC1" is 1.25 L/kg

---

Assay: Displacement of [3H]gabapentin from alpha2-delta subunit of voltage gated calcium channel in pig brain membrane
Format: cell membranes, Sus scrofa
recorded-endpoint: IC50 (nM)
Only the number, expressed in nM, is required.

Example results:
>>> df
                               molecule  recorded_endpoint  value
0          NCC1(Cc2noc(=O)[nH]2)CCCCCC1               IC50    158
1  CC(C)CC(CN)Cc1noc(=O)[nH]1 (racemic)               IC50   1500
2         NCC1(Cc2noc(=O)[nH]2)CCCCCCC1               IC50   5600

Next:
The molecule "NCC1(Cc2noc(=O)[nH]2)CCCC1" showed IC50 equal to 1140

---

The following molecules are shown together with reported IC50 values.
Assay: Displacement of [3H]gabapentin from alpha2-delta subunit of voltage gated calcium channel in pig brain membrane
Format: cell membranes, Sus scrofa

Example entries and their recorded answers appear below.
In [3]: df
Out[3]:
                                     smiles    value
0                 Cn1c(CC2(CN)CCCCC2)noc1=O  > 10 µM
1  C[C@@H]1C[C@H](C)C[C@](CN)(Cc2noc(=O)[nH]2)C1  > 10 µM

Record "Cn1nnnc1CC1(CN)CCCCC1" , field IC50: > 10 µM

From: ChEMBL document CHEMBL1139247
